System: KM12
Assay: Cytotoxicity against human KM12 cells assessed as growth level at 10 uM after 48 hrs by SRB assay
Type: functional
// reported Activity per item

COMPOUND: C=C1CC[C@@H]2[C@](C)(COC(C)=O)[C@H](OC(C)=O)CC[C@@]2(C)[C@@H]1CC(NCCCCCCCC)C1=CCOC1=O (mixture of isomers)
Activity / %: 68.58
//
COMPOUND: C=C1CC[C@@H]2[C@](C)(COC(C)=O)[C@H](OC(C)=O)CC[C@@]2(C)[C@@H]1CC(NCCCCCCCCCCCCCCCCCC)C1=CCOC1=O (mixture of isomers)
Activity / %: 107.75
//
COMPOUND: C=C1CC[C@@H]2[C@](C)(COC(C)=O)[C@H](OC(C)=O)CC[C@@]2(C)[C@@H]1CC(Nc1ccc(S(=O)(=O)NC(C)=O)cc1)C1=CCOC1=O (mixture of isomers)
Activity / %: -34
//
COMPOUND: C=C1CC[C@@H]2[C@](C)(COC(C)=O)[C@H](OC(C)=O)CC[C@@]2(C)[C@@H]1CC(NCCCC)C1=CCOC1=O (mixture of isomers)
Activity / %: 92.79
//
COMPOUND: C=C1CC[C@@H]2[C@](C)(COC(C)=O)[C@H](OC(C)=O)CC[C@@]2(C)[C@@H]1CC(NCc1ccccc1)C1=CCOC1=O (mixture of isomers)
Activity / %: 39.08
//
COMPOUND: C=C1CC[C@@H]2[C@](C)(COC(C)=O)[C@H](OC(C)=O)CC[C@@]2(C)[C@@H]1CC(NCc1ccc(F)cc1)C1=CCOC1=O (mixture of isomers)
Activity / %: 46.48

###

// reported inhibition of growth at 10 µM per item
Experiment: Cytotoxicity against human BT549 cells assessed as growth inhibition at 10 uM after 48 hrs by SRB assay
Type: functional
Conditions: BT-549, 48 h, read-out: GI

MOLECULE: C=C1CC[C@@H]2[C@](C)(CO)[C@H](O)CC[C@@]2(C)[C@@H]1C/C=C1/C(=O)OC[C@H]1O [ANDROGRAPHOLIDE]
READOUT UNIT: %
inhibition of growth at 10 µM: 12.9
--
MOLECULE: C=C1CC[C@@H]2[C@](C)(COC(C)=O)[C@H](OC(C)=O)CC[C@@]2(C)[C@@H]1CC(NCc1cccc(Cl)c1)C1=CCOC1=O (mixture of isomers)
READOUT UNIT: %
inhibition of growth at 10 µM: 50.3
--
MOLECULE: C=C1CC[C@@H]2[C@](C)(COC(C)=O)[C@H](OC(C)=O)CC[C@@]2(C)[C@@H]1CC(NCCCC)C1=CCOC1=O (mixture of isomers)
READOUT UNIT: %
inhibition of growth at 10 µM: 10.8
--
MOLECULE: C=C1CC[C@@H]2[C@](C)(COC(C)=O)[C@H](OC(C)=O)CC[C@@]2(C)[C@@H]1CC(NCc1ccc(F)cc1)C1=CCOC1=O (mixture of isomers)
READOUT UNIT: %
inhibition of growth at 10 µM: 71.3

###

Assay: Cytotoxicity against human HCC2998 cells assessed as growth inhibition at 10 uM after 48 hrs by SRB assay
Format: functional
Details: HCC 2998, 48 h, read-out: GI

MOLECULE: C=C1CC[C@@H]2[C@](C)(COC(C)=O)[C@H](OC(C)=O)CC[C@@]2(C)[C@@H]1C/C=C1/C(=O)OC[C@H]1OC(C)=O
READOUT UNIT: %
inhibition of growth at 10 µM: 32.7
//
MOLECULE: C=C1CC[C@@H]2[C@](C)(COC(C)=O)[C@H](OC(C)=O)CC[C@@]2(C)[C@@H]1CC(NCCCCCCCC)C1=CCOC1=O (mixture of isomers)
READOUT UNIT: %
inhibition of growth at 10 µM: 8.56
//
MOLECULE: C=C1CC[C@@H]2[C@](C)(COC(C)=O)[C@H](OC(C)=O)CC[C@@]2(C)[C@@H]1CC(NCc1ccccc1)C1=CCOC1=O (mixture of isomers)
READOUT UNIT: %
inhibition of growth at 10 µM: 6.31

###

// reported Activity per item
Test system: MDA-MB-468
Assay: Cytotoxicity against human MDA-MB-468 cells assessed as growth level at 10 uM after 48 hrs by SRB assay
Assay type: functional
ENDPOINT NAME: Activity (%)

COMPOUND: C=C1CC[C@@H]2[C@](C)(CO)[C@H](O)CC[C@@]2(C)[C@@H]1C/C=C1/C(=O)OC[C@H]1O [ANDROGRAPHOLIDE]
TGT: MDA-MB-468
ENDPOINT NAME: Activity
VALUE: 42
//
COMPOUND: C=C1CC[C@@H]2[C@](C)(COC(C)=O)[C@H](OC(C)=O)CC[C@@]2(C)[C@@H]1C/C=C1/C(=O)OC[C@H]1OC(C)=O
TGT: MDA-MB-468
ENDPOINT NAME: Activity
VALUE: 7.98
//
COMPOUND: C=C1CC[C@@H]2[C@](C)(COC(C)=O)[C@H](OC(C)=O)CC[C@@]2(C)[C@@H]1CC(NCc1cccc(Cl)c1)C1=CCOC1=O (mixture of isomers)
TGT: MDA-MB-468
ENDPOINT NAME: Activity
VALUE: 25.62
//
COMPOUND: C=C1CC[C@@H]2[C@](C)(COC(C)=O)[C@H](OC(C)=O)CC[C@@]2(C)[C@@H]1CC(NC1CC1)C1=CCOC1=O (mixture of isomers)
TGT: MDA-MB-468
ENDPOINT NAME: Activity
VALUE: 91.77
//
COMPOUND: C=C1CC[C@@H]2[C@](C)(COC(C)=O)[C@H](OC(C)=O)CC[C@@]2(C)[C@@H]1CC(Sc1ccccc1)C1=CCOC1=O (mixture of isomers)
TGT: MDA-MB-468
ENDPOINT NAME: Activity
VALUE: -61.07
//
COMPOUND: C=C1CC[C@@H]2[C@](C)(COC(C)=O)[C@H](OC(C)=O)CC[C@@]2(C)[C@@H]1CC(NCc1ccc(F)cc1)C1=CCOC1=O (mixture of isomers)
TGT: MDA-MB-468
ENDPOINT NAME: Activity
VALUE: 27.52
